- TARGET SYSTEM: Nuclear receptor subfamily 1 group I member 3 (Homo sapiens) (UniProt Q14994)
- Sequence (Q14994 whole entry, looked up): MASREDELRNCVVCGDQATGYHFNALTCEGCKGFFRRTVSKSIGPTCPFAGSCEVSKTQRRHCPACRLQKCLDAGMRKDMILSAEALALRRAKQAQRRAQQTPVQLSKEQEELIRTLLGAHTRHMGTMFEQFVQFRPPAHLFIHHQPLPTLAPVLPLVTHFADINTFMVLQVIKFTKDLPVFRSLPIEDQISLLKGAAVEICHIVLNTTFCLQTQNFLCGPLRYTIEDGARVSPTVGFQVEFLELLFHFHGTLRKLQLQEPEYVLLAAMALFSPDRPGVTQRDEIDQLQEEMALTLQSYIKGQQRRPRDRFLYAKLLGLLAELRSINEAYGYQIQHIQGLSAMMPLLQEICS
- PROTOCOL DETAILS: qHTS assay to identify small molecule antagonists of the constitutive androstane receptor (CAR) signaling pathway (AID 1224838);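 also: HepG2 cells stably expressing hCAR with CYP2B6 luciferase reporter stimulated by CITCO; nearly all actives have a fitted effect of over 40% in size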; also: potency is read from the fitted curve at half-maximal effect
- STUDY CONDITIONS: HepG2-CYP2B6-hCAR luciferase, CITCO-stimulated, 24 h; series mostly up to 92.4 µM
Results filed as inconclusive are left out. Calls of active or inactive are those of the source. Calls follow the shape of the dose curve; as a rule, active = well fitted inhibition curve with a large enough effect in the repeat runs; inconclusive = weak or mixed curves, or effect the other way; inactive = no such curve, though single readings can be large or run the other way.
RECORDED ENDPOINT: Potency

The following compounds have reported results that may help.
COc1cc(/C=C/C(=O)O[C@H]2CC[C@]34C[C@]35CC[C@]3(C)[C@@H]([C@H](C)CCC=C(C)C)CC[C@@]3(C)[C@@H]5CC[C@H]4C2(C)C)ccc1O
inactive
O=C1c2c(O)ccc(Nc3ccc(CCO)cc3)c2C(=O)c2c([N+](=O)[O-])ccc(O)c21
inactive
CCOC(=O)O[C@H](C)OC(=O)c1ccc2c(c1)cc(C(=O)NC1CCN(C(C)C)CC1)n2Cc1cc(-c2ccc(Cl)s2)on1
64.1 µM (active)
CCC(CN)=C(c1ccccc1)c1ccccc1
inactive

So what does the record say about Potency for O=C(O)c1ccc(Cl)c(Cl)c1 ?
inactive

Likewise for Nc1ccc2c3c(cccc13)-c1ccccc1-2 ?
inactive

Also O=C1CCCCCN1SSN1CCCCCC1=O ?
27.3 µM (active)

How about O=C1C=CC(=O)N1 ?
31.4 µM (active)

====

- PROTOCOL DETAILS: A CellTox Green Cytotoxicity Assay to monitor cytotoxicity in HepG2 cells - 0 hour (AID 1224882); also: nearly all actives have a fitted effect of over 35% in size; as to Cytotoxicity: % is scaled to controls: 0 for no effect and ±100 for the full control effect
- STUDY CONDITIONS: CellTox Green fluorescence; series mostly up to 76.8 µM
Calls of active or inactive are those of the source. The call rests on the fitted dose curve; in most records, active means well fitted activation curve with a large enough effect in the repeat runs; inconclusive means weak or mixed curves; inactive means flat fitted curve, though single readings scatter.
Classes to choose from: Y for active, N for inactive

Some entries whose results are on file:
Oc1ccc2cc(SSc3ccc4cc(O)ccc4c3)ccc2c1
N
CSc1ccc(C(=O)c2[nH]c(=O)[nH]c2C)cc1
N
NC(=O)CC[C@@H]1NC(=O)[C@H](Cc2ccccc2)NC(=O)[C@H](Cc2ccc(O)cc2)NC(=O)CCSSC[C@@H](C(=O)N2CCC[C@H]2C(=O)N[C@@H](CCCN=C(N)N)C(=O)NCC(N)=O)NC(=O)[C@H](CC(N)=O)NC1=O
N

Which result was noted for this compound in the test: Cc1cc(O)c(C(C)(C)C)cc1Sc1cc(C(C)(C)C)c(O)cc1C
N

What do we get for CCCCCCCCCCC=O ?
N

Do the same for Cc1cc(O)c(C(C)(C)C)cc1C(C)(C)C please
N

Follow-up entry: Cc1onc(-c2c(Cl)cccc2Cl)c1C(=O)N[C@@H]1C(=O)N2[C@@H]1SC(C)(C)[C@@H]2C(=O)O
N

# iterate: O=C(Nc1cccc([N+](=O)[O-])c1)c1cc2ccccc2cc1O
N

Another: O=CC=C(c1ccccc1)c1ccccc1
N

Quick one: CCCCCCCCCCCCCCCS(=O)(=O)Oc1ccccc1
N

Entry to check: OCCN(CCO)c1nc(N2CCCCC2)c2nc(N(CCO)CCO)nc(N3CCCCC3)c2n1
Y

Next entry: O=C(Oc1cccc2cccnc12)c1ccccc1
N

Repeat for the following compound: O=c1[nH]sc2ccccc12
N

====

- PROTOCOL DETAILS: qHTS assay to identify small molecule agonists of the RXR signaling pathway - cell viability counter screen (AID 1159529); also: nearly all actives have a fitted effect of over 50% in size
- STUDY CONDITIONS: RXR-alpha-bla HEK293T viability, CellTiter-Glo, 16 h; series mostly up to 76.8 µM
Inconclusive results are not listed. The source made the active and inactive calls. Calls follow the shape of the dose curve; as a rule, active = well fitted cell-killing curve with a large enough effect in the repeat runs; inconclusive = weak or mixed curves, or effect the other way; inactive = no such curve, though single readings can be large or run the other way.
Pick one and only one: active, inactive

Use the examples below as a reference point.
CC[C@H](c1ccc(O)cc1)[C@@H](CC)c1ccc(O)cc1
active
O=C1C=CC(=O)N1
active
Cc1oc(-c2ccccc2)nc1CCC(=O)c1ccc(CC2SC(=O)NC2=O)cc1 (configuration not stated)
inactive
NNc1nc(-c2ccc(N)cc2)cs1
inactive
Cc1cc(CCN2CCN(c3nsc4ccccc34)CC2)cc2c1NC(=O)CC2(C)C
active
Nc1c(Cl)cc(Cl)cc1Cl
inactive
O=C1c2ccccc2Cc2ccccc21
inactive
O=C(O)c1c(Cl)cccc1Cl
inactive

Answer briefly: the call reported for Cc1c(C)c2c(c(C)c1O)CCC(C)(COc1ccc(CC3SC(=O)NC3=O)cc1)O2 (configuration not stated) in this assay.
inactive

Then what about the compound O=C(Nc1cccc(C(F)(F)F)c1)c1cc(Br)cc(Br)c1O ?
active

How about O=C(N/N=C/c1ccccc1O)c1ccncc1 ?
inactive

Same thing, different compound: C[C@@H](NCCCc1cccc(C(F)(F)F)c1)c1cccc2ccccc12
active

====

- TARGET SYSTEM: Estrogen receptor (Homo sapiens)
- PROTOCOL DETAILS: qHTS assay to identify small molecule agonists of the estrogen receptor alpha (ER-alpha) signaling pathway using the BG1 cell line (AID 743079); also: % is scaled to controls: 0 for no effect and ±100 for the full control effect; nearly all actives have a fitted effect of over 20% in size
- STUDY CONDITIONS: BG1Luc4E2 cells, ERE-luciferase agonist, 22 h; at 70.3 µM (top of the series)
Records with an inconclusive call do not appear.
Reported activation is given for each of the following molecules.
Numeric answer only, unit % assumed.

Clc1ccc2nsnc2c1NC1=NCCN1
1.06
Fc1ccc(C(c2ccc(F)cc2)N2CCN(C/C=C/c3ccccc3)CC2)cc1
-22.9
C[C@]12CCC(=O)C=C1CC[C@@H]1[C@@H]2[C@@H](O)C[C@@]2(C)[C@H]1CC[C@]2(O)C(=O)COC(=O)CCC(=O)O
9.99
CCCCN1CCCC[C@H]1C(=O)Nc1c(C)cccc1C
-9.26
COCCCC/C(=N\OCCN)c1ccc(C(F)(F)F)cc1
-27
O=C1CCCCCN1SSN1CCCCCC1=O
-12.6

So what does the record say about activation for COc1ccc(-c2ccc3cc(C(=O)O)ccc3c2)cc1C12CC3CC(CC(C3)C1)C2 ?
-4.61

Could you do the same for CNC(=O)c1ccccc1 , please?
-14.7

For CC[C@H](c1ccc(O)cc1)[C@@H](CC)c1ccc(O)cc1 then?
-55.2

Same read-out for Cc1cccc(S(=O)(=O)O)c1C ?
-6.85

Next record, please: NNC(=O)c1cccc(C(=O)NN)c1
4.33

// next record Cc1ccc2oc(CN(Cc3ccccc3)C(=O)Nc3c(F)cc(F)cc3F)c(-c3ccc(Cl)cc3)c2c1
-12.5

Please do the same for CCCCCCCCCCCCCCCS(=O)(=O)Oc1ccccc1 as well.
-9.91

Next molecule up: O=[N+]([O-])c1ccccc1Nc1ccccc1
4.1

// query: Cc1cc(O)c2ccccc2c1O
-13.8

====

- PROTOCOL DETAILS: Caspase-3/7 induction in HepG2 cells by small molecules, qHTS assay (AID 1346978); also: nearly all actives have a fitted effect of over 15% in size
- STUDY CONDITIONS: HepG2 caspase-3/7 activation, Caspase-Glo luminescence, 17 h; series mostly up to 92.4 µM
- Source text: National Center for Advancing Translational Sciences [NCATS] NIH Chemical Genomics Center [NCGC] U.S. Environmental Protection Agency [EPA] National Institutes of Environmental Health Sciences [NIEHS] National Toxicology Program [NTP] Assay overview: Apoptosis is a process of programmed cell death and plays a central role in the development of multicellular organisms. […]
Records with an inconclusive call do not appear. Activity calls are given as the source filed them. Calls follow the shape of the dose curve; as a rule, active = well fitted activation curve with a large enough effect in the repeat runs; inconclusive = weak or mixed curves; inactive = flat fitted curve, though single readings scatter.
Return exactly one item of active, inactive

Worked cases, answers included:
O=C1CCCc2c1cc1ccc3cccc4ccc2c1c34
inactive
CC(C)(C)C(=O)OCOC(=O)C1N2C(=O)CC2S(=O)(=O)C1(C)C (stereo not given)
inactive
COc1cc(/C=C/C(=O)O[C@H]2CC[C@]34C[C@]35CC[C@]3(C)[C@@H]([C@H](C)CCC=C(C)C)CC[C@@]3(C)[C@@H]5CC[C@H]4C2(C)C)ccc1O
active
Clc1ccc2nsnc2c1NC1=NCCN1
inactive
COc1c(C)c2c(c(O)c1C/C=C(\C)CCC(=O)O)C(=O)OC2
inactive

Hello, I am checking results. What call was entered for Cc1cc(=O)oc2cc(N(C)C)ccc12 ?
inactive

Continue with Cc1[nH]nc2c1N=C(c1ccccc1Cl)c1cc([N+](=O)[O-])ccc1N2
active

====

- TARGET SYSTEM: Peroxisome proliferator-activated receptor delta (Homo sapiens) (UniProt Q03181)
- Sequence (Q03181 whole entry, looked up): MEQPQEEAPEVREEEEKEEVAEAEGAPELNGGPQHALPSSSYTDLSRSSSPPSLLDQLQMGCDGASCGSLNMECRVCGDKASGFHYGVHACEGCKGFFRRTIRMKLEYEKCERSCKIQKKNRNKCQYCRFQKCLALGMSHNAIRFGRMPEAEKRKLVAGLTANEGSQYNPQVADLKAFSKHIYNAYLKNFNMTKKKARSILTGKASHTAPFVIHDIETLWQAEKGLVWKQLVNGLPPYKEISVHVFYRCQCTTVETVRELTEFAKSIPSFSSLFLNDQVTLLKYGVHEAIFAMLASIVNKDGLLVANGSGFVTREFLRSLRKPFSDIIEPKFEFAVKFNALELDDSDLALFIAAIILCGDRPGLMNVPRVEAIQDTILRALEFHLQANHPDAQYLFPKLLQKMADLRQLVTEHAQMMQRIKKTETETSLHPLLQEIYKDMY
- PROTOCOL DETAILS: qHTS assay to identify small molecule agonists of the peroxisome proliferator-activated receptor delta (PPARd) signaling pathway (AID 743212);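 also: HEK293H cells with PPARd UAS beta-lactamase reporter GeneBLAzer system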
- STUDY CONDITIONS: HEK293H PPARd-UAS-bla, beta-lactamase FRET ratio, 17 h; series mostly up to 62.6 µM
Results filed as inconclusive are left out. The source made the active and inactive calls. Calls come from the whole dose curve.
Output constraint: value belongs to 1 (yes) (active), 0 (no) (inactive)

Below are worked cases with known answers.
COCCCC/C(=N\OCCN)c1ccc(C(F)(F)F)cc1
0 (no)
COc1cc(-c2ccc(N=C=O)c(OC)c2)ccc1N=C=O
0 (no)
CCCCC(CC)COC(=O)c1ccccc1C(=O)O (centres undefined)
1 (yes)
Cc1nc(-c2ccc3c(c2)CCN(CCC2CCC(NC(=O)/C=C/c4ccc(F)cc4)CC2)CC3)no1 (centres undefined)
1 (yes)
N#CC1(c2ccc(F)cc2)CCC(=O)CC1
0 (no)

Which outcome was assigned to O=C1c2ccccc2Cc2ccccc21 in this test?
0 (no)

Then this compound: Nc1ccc2cc(S(=O)(=O)O)cc(O)c2c1N=Nc1ccccc1C(F)(F)F
0 (no)

Thanks! And Cc1ccc(O)c(C(C)(C)C)c1 ?
0 (no)

Quick one: C=C(C)C(=O)OCC(O)COc1ccc(C(C)(C)c2ccc(OCC(O)COC(=O)C(=C)C)cc2)cc1 (centres undefined)
0 (no)

Follow-up item: CCCC(C)c1ccccc1O (centres undefined)
0 (no)

Same question for Fc1ccc([C@@H]2CCNC[C@H]2COc2ccc3c(c2)OCO3)cc1 please.
0 (no)

Another: CCCCCCOC(=O)c1ccc(O)cc1
0 (no)

Thanks! And O=C(O)c1cc(O)c2c(c1)C(=O)c1cccc(O)c1C2=O ?
0 (no)

Now try CCCCCCCCCCC=O .
0 (no)

Moving on to the next compound: Nc1nc2ccccc2n1Cc1ccc(F)cc1
0 (no)

Lookup S=c1[nH]c2ccccc2s1
0 (no)

Ok, now CC(C)(C)C(=O)OCOC(=O)[C@@H]1N2C(=O)[C@@H](NC(=O)[C@H](N)c3ccccc3)[C@H]2SC1(C)C
0 (no)

Try this compound too: CN1CCN(CCC(=O)N2c3ccccc3Sc3ccc(C(F)(F)F)cc32)CC1
0 (no)

What about O=C(c1ccc(F)cc1)C1CCN(CCn2c(=O)[nH]c3ccccc3c2=O)CC1 ?
0 (no)

Next up: [O-][n+]1ccccc1SSc1cccc[n+]1[O-]
0 (no)

# credit: PubChem BioAssay (Tox21)
